# STUDY_SYSTEM: Glu-plg (Homo sapiens)
# Construct: 0.1 mM VLK-pNA, 50 nM Glu-plg and 50 U/ml u-PA
# EXPERIMENT_SUMMARY: Plasminogen (plg) activation enhancing activity by urokinase catalysis, VLK-pNA chromogenic assay (Example 30, Table 24)
# Assay type: biochemical
# TEST_CONTEXT: concentration giving 10-fold enhancement of plasminogen activation vs control without SMTP compound (=1); 0.1 mM VLK-pNA, 50 nM Glu-plg, 50 U/ml u-PA, 37° C.
Parameter 10-Fold enhancing activity: Concentration by mole: see the listing below.
Expressed in μM, but write only the number.

The cases that follow already have their 10-Fold enhancing activity: Concentration by mole on record.
CC(C)=CCC/C(C)=C/CC[C@]1(C)Oc2c(c(O)cc3c2CN([C@H](C(=O)O)c2ccc(O)cc2)C3=O)C[C@@H]1O [Compound I-22] : 211
CC(C)=CCC/C(C)=C/CC[C@]1(C)Oc2c(c(O)cc3c2CN(c2ccc(C(=O)O)cc2O)C3=O)C[C@@H]1O [Compound I-6] : 131
CC(C)=CCC/C(C)=C/CC[C@]1(C)Oc2c(c(O)cc3c2CN(c2ccc(C(=O)O)cc2)C3=O)C[C@@H]1O [Compound I-2] : 83
CC(C)=CCC/C(C)=C/CC[C@]1(C)Oc2c(c(O)cc3c2CN(c2ccc(C(=O)O)c(O)c2)C3=O)C[C@@H]1O [Compound I-5] : 100

Now for a further compound.
**Q:** Provide 10-Fold enhancing activity: Concentration by mole, system Glu-plg (Homo sapiens), entry CC(C)=CCC/C(C)=C/CC[C@]1(C)Oc2c(c(O)cc3c2CN([C@@H](C(=O)O)c2ccc(O)cc2)C3=O)C[C@@H]1O [Compound I-23]
**A:** 331

----------
# STUDY_SYSTEM: Glu-plg (Homo sapiens, UniProt P00747)
# Construct: 0.1 mM VLK-pNA, 50 nM Glu-plg and 50 U/ml u-PA
# Sequence (P00747 20-810 limits assumed): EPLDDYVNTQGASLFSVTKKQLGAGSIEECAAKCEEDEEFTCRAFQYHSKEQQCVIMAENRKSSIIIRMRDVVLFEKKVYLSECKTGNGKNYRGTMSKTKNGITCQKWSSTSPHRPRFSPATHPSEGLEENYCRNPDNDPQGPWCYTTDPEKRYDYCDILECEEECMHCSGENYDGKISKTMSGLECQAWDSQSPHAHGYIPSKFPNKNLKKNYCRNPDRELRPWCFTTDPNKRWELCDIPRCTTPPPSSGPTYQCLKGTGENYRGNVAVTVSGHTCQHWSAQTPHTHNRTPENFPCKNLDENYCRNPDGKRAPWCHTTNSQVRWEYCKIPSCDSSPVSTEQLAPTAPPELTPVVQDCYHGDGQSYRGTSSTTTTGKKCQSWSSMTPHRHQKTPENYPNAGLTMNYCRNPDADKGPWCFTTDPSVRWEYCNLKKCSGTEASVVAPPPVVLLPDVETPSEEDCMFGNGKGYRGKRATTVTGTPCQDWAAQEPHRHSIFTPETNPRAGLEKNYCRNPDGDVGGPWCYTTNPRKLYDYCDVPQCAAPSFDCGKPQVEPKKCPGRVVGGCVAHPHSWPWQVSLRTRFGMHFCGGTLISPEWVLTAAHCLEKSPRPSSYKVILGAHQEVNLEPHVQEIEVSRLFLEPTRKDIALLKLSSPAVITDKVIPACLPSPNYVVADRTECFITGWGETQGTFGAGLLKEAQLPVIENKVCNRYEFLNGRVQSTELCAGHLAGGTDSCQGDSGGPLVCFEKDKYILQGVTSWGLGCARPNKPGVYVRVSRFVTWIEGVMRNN
# EXPERIMENT_SUMMARY: Plasminogen (plg) activation enhancing activity by urokinase catalysis, VLK-pNA chromogenic assay (Example 30, Table 24)
# Format: biochemical
# TEST_CONTEXT: concentration at which enhancement of plasminogen activation reaches the maximum
REPORTED_PROPERTY: Maximum enhancing activity: Concentration by weight (µg/mL)
Give just the number in µg/mL; leave the unit off.

CC(C)=CCC/C(C)=C/CC[C@]1(C)Oc2c(c(O)cc3c2CN(c2cccc(C(=O)O)c2)C3=O)C[C@@H]1O : 151
CC(C)=CCC/C(C)=C/CC[C@]1(C)Oc2c(c(O)cc3c2CN([C@H](C(=O)O)c2ccc(O)cc2)C3=O)C[C@@H]1O : 160
CC(C)=CCC/C(C)=C/CC[C@]1(C)Oc2c(c(O)cc3c2CN(c2ccc(O)c(C(=O)O)c2)C3=O)C[C@@H]1O : 63
CC(C)=CCC/C(C)=C/CC[C@]1(C)Oc2c(c(O)cc3c2CN([C@@H](C(=O)O)c2ccccc2)C3=O)C[C@@H]1O : 150
CC(C)=CCC/C(C)=C/CC[C@]1(C)Oc2c(c(O)cc3c2CN(c2ccc(O)cc2C(=O)O)C3=O)C[C@@H]1O : 101

**Q:** Indicate its recorded Maximum enhancing activity: Concentration by weight; the compound in question is `CC(C)=CCC/C(C)=C/CC[C@]1(C)Oc2c(c(O)cc3c2CN(c2c(O)cccc2C(=O)O)C3=O)C[C@@H]1O`
**A:** 151

----------
Each entry below carries its reported Maximum enhancing activity: Concentration by mole.
# STUDY_SYSTEM: Glu-plg (Homo sapiens)
# Construct: 0.1 mM VLK-pNA, 50 nM Glu-plg and 50 U/ml u-PA
# EXPERIMENT_SUMMARY: Plasminogen (plg) activation enhancing activity by urokinase catalysis, VLK-pNA chromogenic assay (Example 30, Table 24)
# Type: biochemical
# TEST_CONTEXT: concentration at which enhancement of plasminogen activation reaches the maximum
Dear colleague, please return just the value in µM, with no unit written.

Recorded Maximum enhancing activity: Concentration by mole, per entry:
CC(C)=CCC/C(C)=C/CC[C@]1(C)Oc2c(c(O)cc3c2CN([C@@H](C(=O)O)c2ccc(O)cc2)C3=O)C[C@@H]1O [Compound I-23] : 402
CC(C)=CCC/C(C)=C/CC[C@]1(C)Oc2c(c(O)cc3c2CN(c2ccccc2C(=O)O)C3=O)C[C@@H]1O [Compound I-4] : 200
CC(C)=CCC/C(C)=C/CC[C@]1(C)Oc2c(c(O)cc3c2CN([C@H](C(=O)O)c2cccc(O)c2)C3=O)C[C@@H]1O (racemic) [Compound I-25] : 402
CC(C)=CCC/C(C)=C/CC[C@]1(C)Oc2c(c(O)cc3c2CN(c2ccc(C(=O)O)cc2O)C3=O)C[C@@H]1O [Compound I-6] : 290
CC(C)=CCC/C(C)=C/CC[C@]1(C)Oc2c(c(O)cc3c2CN(c2ccc(O)cc2C(=O)O)C3=O)C[C@@H]1O [Compound I-11] : 200

# next molecule below
**Q:** Complete the entry with Maximum enhancing activity: Concentration by mole for CC(C)=CCC/C(C)=C/CC[C@]1(C)Oc2c(c(O)cc3c2CN(c2ccc(C(=O)O)cc2)C3=O)C[C@@H]1O [Compound I-2]
**A:** 160

----------
# STUDY_SYSTEM: Glu-plg (Homo sapiens, UniProt P00747)
# Construct: 0.1 mM VLK-pNA, 50 nM Glu-plg and 50 U/ml u-PA
# EXPERIMENT_SUMMARY: Plasminogen (plg) activation enhancing activity by urokinase catalysis, VLK-pNA chromogenic assay (Example 30, Table 24)
# Type: biochemical
# TEST_CONTEXT: concentration at which enhancement of plasminogen activation reaches the maximum
Examples of compounds with documented Maximum enhancing activity: Concentration by mole follow.
Give the figure together with its unit, number first.

Here are 5 compounds together with their reported answers.
CC(C)=CCC/C(C)=C/CC[C@]1(C)Oc2c(c(O)cc3c2CN(c2cccc(C(=O)O)c2)C3=O)C[C@@H]1O : 300 µM
CC(C)=CCC/C(C)=C/CC[C@]1(C)Oc2c(c(O)cc3c2CN([C@H](C(=O)O)c2ccccc2)C3=O)C[C@@H]1O : 289 µM
CC(C)=CCC/C(C)=C/CC[C@]1(C)Oc2c(c(O)cc3c2CN(c2ccc(C(=O)O)c(O)c2)C3=O)C[C@@H]1O : 200 µM
CC(C)=CCC/C(C)=C/CC[C@]1(C)Oc2c(c(O)cc3c2CN(c2ccc(S(=O)(=O)O)cc2)C3=O)C[C@@H]1O : 300 µM
CC(C)=CCC/C(C)=C/CC[C@]1(C)Oc2c(c(O)cc3c2CN([C@H](C(=O)O)c2ccc(O)cc2)C3=O)C[C@@H]1O : 299 µM

From here, focus on the item given below.
**Q:** Report the value of Maximum enhancing activity: Concentration by mole obtained on Glu-plg (Homo sapiens, UniProt P00747) for `CC(C)=CCC/C(C)=C/CC[C@]1(C)Oc2c(c(O)cc3c2CN([C@@H](Cc2ccc(O)cc2)C(=O)O)C3=O)C[C@H]1O` .
**A:** 200 µM

----------
# STUDY_SYSTEM: Glu-plg (Homo sapiens)
# Construct: 0.1 mM VLK-pNA, 50 nM Glu-plg and 50 U/ml u-PA
# EXPERIMENT_SUMMARY: Plasminogen (plg) activation enhancing activity by urokinase catalysis, VLK-pNA chromogenic assay (Example 30, Table 24)
# Format: biochemical
# TEST_CONTEXT: concentration giving 10-fold enhancement of plasminogen activation vs control without SMTP compound (=1); 0.1 mM VLK-pNA, 50 nM Glu-plg, 50 U/ml u-PA, 37° C.
The label depends only on 10-Fold enhancing activity: Concentration by mole: 1 if it is at least 90 μM, 0 if it is smaller.

Solved cases below.
CC(C)=CCC/C(C)=C/CC[C@]1(C)Oc2c(c(O)cc3c2CN(c2c(O)cccc2C(=O)O)C3=O)C[C@@H]1O : 1
CC(C)=CCC/C(C)=C/CC[C@]1(C)Oc2c(c(O)cc3c2CN([C@H](C(=O)O)c2cccc(O)c2)C3=O)C[C@@H]1O (racemic) : 1
CC(C)=CCC/C(C)=C/CC[C@]1(C)Oc2c(c(O)cc3c2CN([C@@H](Cc2ccc(O)cc2)C(=O)O)C3=O)C[C@H]1O : 0
CC(C)=CCC/C(C)=C/CC[C@]1(C)Oc2c(c(O)cc3c2CN(c2cccc(C(=O)O)c2)C3=O)C[C@@H]1O : 1
CC(C)=CCC/C(C)=C/CC[C@]1(C)Oc2c(c(O)cc3c2CN(c2cccc(C(=O)O)c2O)C3=O)C[C@@H]1O : 0

Switching to the query record.
**Q:** Would you say `CC(C)=CCC/C(C)=C/CC[C@]1(C)Oc2c(c(O)cc3c2CN(c2cc(C(=O)O)ccc2O)C3=O)C[C@@H]1O` shows 10-Fold enhancing activity: Concentration by mole at minimum 90 μM?
**A:** 1
